Taken from patent US20260048041A1.

Assay: Drug interaction (PK) trial of JP-1366, amoxicillin and clarithromycin in healthy adult volunteers
Assay type: in vivo, human
Settings: human, in vivo; JP-1366 after T1: JP-1366 20 mg 1 capsule alone, twice daily, 5 days, oral; N = 24; read-out: Cmax, ss, Geometric LS Mean
Text: Test drug and administration period A. Test drug 1: […] Jeil Pharmaceutical • Dose: […] Oral B. […] Selection and classification of clinical trial subjects […]
ENDPOINT_LABEL: Cmax (ng/mL)

INSERT INTO measurements (smiles_string, endpoint_label, measured_number) VALUES
  ('Cc1cccc(C)c1CNc1cc(C(=O)N2CCC2)cn2c(C)c(C)nc12.O=C(O)CC(O)(CC(=O)O)C(=O)O', 'Cmax', 156);
